Recorded values, source ChEMBL document CHEMBL5260821.

Tested on: CCRF-CEM
Assay: Antiproliferative activity against human CEM cells assessed as reduction in cell viability
Assay type: functional, cell-based
Here the recorded pIC50 is given for each entry.
# pIC50 is unitless: minus log10 of the molar concentration; print number only

- LINE NOTATION: "CCc1ccc(CSCc2cc(C(=O)OC)c(N)s2)cc1"
  ASSAY TARGET: "CCRF-CEM"
  pIC50: 6.47

// next item, pIC50 requested
Q: Which pIC50 is reported for this compound? COC(=O)c1cc(CSCc2ccc(C(C)C)cc2)sc1N
A: 6.34

###

Target: Neprilysin (Homo sapiens, UniProt P08473)
Sequence (P08473 whole entry): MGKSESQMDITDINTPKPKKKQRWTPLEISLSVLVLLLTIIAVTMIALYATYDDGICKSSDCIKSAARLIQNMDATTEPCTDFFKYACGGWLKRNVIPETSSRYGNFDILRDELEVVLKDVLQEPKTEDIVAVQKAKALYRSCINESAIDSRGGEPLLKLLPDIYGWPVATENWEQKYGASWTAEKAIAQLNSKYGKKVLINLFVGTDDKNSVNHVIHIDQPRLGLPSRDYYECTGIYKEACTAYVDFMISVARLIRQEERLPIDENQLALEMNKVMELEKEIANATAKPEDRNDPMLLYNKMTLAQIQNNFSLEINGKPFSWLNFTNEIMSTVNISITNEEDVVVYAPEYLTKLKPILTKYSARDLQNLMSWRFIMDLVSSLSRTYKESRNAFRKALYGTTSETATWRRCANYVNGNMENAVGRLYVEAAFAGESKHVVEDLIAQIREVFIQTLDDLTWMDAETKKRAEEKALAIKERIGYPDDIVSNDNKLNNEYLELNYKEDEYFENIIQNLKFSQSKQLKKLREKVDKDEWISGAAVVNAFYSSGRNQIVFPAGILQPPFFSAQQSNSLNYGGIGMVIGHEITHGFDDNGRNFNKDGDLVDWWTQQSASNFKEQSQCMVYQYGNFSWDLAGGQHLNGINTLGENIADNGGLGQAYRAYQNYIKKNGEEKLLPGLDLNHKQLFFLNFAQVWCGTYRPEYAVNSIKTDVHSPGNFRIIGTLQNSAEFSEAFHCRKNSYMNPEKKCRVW
Experiment: Partial agonist activity at human neprilysin expressed in CHP-212 cells
MEASURED METRIC: pEC50
Scale: negative log10 of molar concentration, which is what pEC50 denotes.

Q: Tell me the measured pEC50 of CCCN(CC(F)(F)F)c1cc(Br)c(C#N)s1 , please.
A: 8.30
